Test system: A498
Assay: Growth inhibition of human A498 cells after 48 hrs by sulforhodamine B assay
Assay type: functional, cell-based
Conditions: A498, 48 h
Experimental endpoint: GI50 (nM)
Give just the numeric value; nM need not be written.

COc1cc(-c2nn(-c3cccc(NC(=O)Nc4ccc(Cl)c(Cl)c4)c3)cc2-c2ccncc2)ccc1Cl    1140

Please state recorded GI50 (tested on A498) of O=C(Nc1cccc(-n2cc(-c3ccncc3)c(-c3ccc(Cl)c(O)c3)n2)c1)Nc1cc(C(F)(F)F)cc(C(F)(F)F)c1
792

GET /values?readout=GI50&system=A498&item= COc1cc(-c2nn(-c3cccc(NC(=O)c4ccccc4)c3)cc2-c2ccncc2)ccc1Cl
361

Give recorded GI50 with A498 for the following compound: COc1cc(-c2nn(-c3cccc(NC(=O)c4cccc(C(F)(F)F)c4)c3)cc2-c2ccncc2)ccc1Cl
687

----------
System: OVCAR-8
Experiment: Growth inhibition of human OVCAR8 cells assessed as cell growth at 10 uM after 48 hrs by sulforhodamine B assay
Assay type: functional
Settings: OVCAR-8, 48 h, read-out: Activity
Experimental endpoint: growth at 10 µM

Use these answered entries as a reference point.
COc1cc(-c2nn(-c3cccc(NC(=O)c4ccc(Cl)c(C(F)(F)F)c4)c3)cc2-c2ccncc2)ccc1Cl    38.9%
COc1cc(-c2nn(-c3cccc(NC(=O)c4ccc(N5CCOCC5)c(C(F)(F)F)c4)c3)cc2-c2ccncc2)ccc1Cl    5.23%
COc1cc(-c2nn(-c3cccc(NC(=O)c4ccc(Br)c(C)c4)c3)cc2-c2ccncc2)ccc1Cl    77.3%
COc1cc(-c2nn(-c3cccc(NC(=O)Nc4ccc(Cl)c(C(F)(F)F)c4)c3)cc2-c2ccncc2)ccc1Cl    -19.9%

Request - read-out growth at 10 µM | tested on OVCAR-8 | compound O=C(Nc1cccc(-n2cc(-c3ccncc3)c(-c3ccc(Cl)c(O)c3)n2)c1)Nc1ccc(Cl)c(C(F)(F)F)c1
-41.8%

----------
Here the recorded TGI is given for each entry.
Tested on: BT-549
Assay: Growth inhibition of human BT549 cells after 48 hrs by sulforhodamine B assay
Type: functional
Settings: BT-549, 48 h
Respond with the bare value in µM.

Field: example entries. Status: answers known.
COc1cc(-c2nn(-c3cccc(NC(=O)c4cccc(C(F)(F)F)c4)c3)cc2-c2ccncc2)ccc1Cl    46.8
COc1cc(-c2nn(-c3cccc(NC(=O)Nc4cc(C(F)(F)F)cc(C(F)(F)F)c4)c3)cc2-c2ccncc2)ccc1Cl    3.06

I have this molecule here, O=C(Nc1cccc(-n2cc(-c3ccncc3)c(-c3ccc(Cl)c(O)c3)n2)c1)Nc1cccc(C(F)(F)F)c1 , and I need its recorded TGI.
21.4

Using the record for COc1cc(-c2nn(-c3cccc(NC(=O)Nc4ccc(Cl)c(Cl)c4)c3)cc2-c2ccncc2)ccc1Cl , report its TGI.
27.6

----------
Tested on: NCI-H23
Assay: Growth inhibition of human NCI-H23 cells after 48 hrs by sulforhodamine B assay
Type: functional
Conditions: NCI-H23, 48 h
Experimental endpoint: GI50 (µM)
Please give a number only; it is taken to be in µM.

Study these solved cases before continuing.
COc1cc(-c2nn(-c3cccc(NC(=O)c4cccc(C(F)(F)F)c4)c3)cc2-c2ccncc2)ccc1Cl    1.56
O=C(Nc1cccc(-n2cc(-c3ccncc3)c(-c3ccc(Cl)c(O)c3)n2)c1)c1ccc(N2CCOCC2)c(C(F)(F)F)c1    4.2
O=C(Nc1cccc(-n2cc(-c3ccncc3)c(-c3ccc(Cl)c(O)c3)n2)c1)Nc1ccc(Cl)c(C(F)(F)F)c1    0.951
COc1cc(-c2nn(-c3cccc(NC(=O)c4ccc(Cl)c(C(F)(F)F)c4)c3)cc2-c2ccncc2)ccc1Cl    5.39

Fill blank: measured GI50 of the compound O=C(Nc1cccc(-n2cc(-c3ccncc3)c(-c3ccc(Cl)c(O)c3)n2)c1)Nc1cccc(C(F)(F)F)c1 is ____.
1.9

----------
Test system: ACHN
Experiment: Growth inhibition of human ACHN cells assessed as cell growth at 10 uM after 48 hrs by sulforhodamine B assay
Type: functional
Conditions: read-out: Activity
The entries below come with measured growth at 10 µM values attached.
Write the number in % without appending the unit.

Cc1cc(C(=O)Nc2cccc(-n3cc(-c4ccncc4)c(-c4ccc(Cl)c(O)c4)n3)c2)ccc1Br    91.8
COc1cc(-c2nn(-c3cccc(NC(=O)Nc4cccc(C(F)(F)F)c4)c3)cc2-c2ccncc2)ccc1Cl    6.54
COc1cc(-c2nn(-c3cccc(NC(=O)c4ccccc4)c3)cc2-c2ccncc2)ccc1Cl    32.3

Which growth at 10 µM reading was recorded for the compound O=C(Nc1cccc(-n2cc(-c3ccncc3)c(-c3ccc(Cl)c(O)c3)n2)c1)c1ccc(N2CCOCC2)c(C(F)(F)F)c1 ?
36.6

Entry O=C(Nc1cccc(-n2cc(-c3ccncc3)c(-c3ccc(Cl)c(O)c3)n2)c1)Nc1cc(C(F)(F)F)cc(C(F)(F)F)c1 : reported growth at 10 µM = ?
8.48

I am curious: what growth at 10 µM value has been reported for COc1cc(-c2nn(-c3cccc(NC(=O)c4ccc(Cl)c(C(F)(F)F)c4)c3)cc2-c2ccncc2)ccc1Cl ?
39.1

----------
TGI listing for selected compounds.
Test system: U-251
Assay: Growth inhibition of human U251 cells after 48 hrs by sulforhodamine B assay
Type: functional
Details: U-251, 48 h
All answers are understood in µM, so give the number only.

Examples with their reported TGI follow.
COc1cc(-c2nn(-c3cccc(NC(=O)c4ccc(N5CCOCC5)c(C(F)(F)F)c4)c3)cc2-c2ccncc2)ccc1Cl    3.95
COc1cc(-c2nn(-c3cccc(NC(=O)Nc4cc(C(F)(F)F)cc(C(F)(F)F)c4)c3)cc2-c2ccncc2)ccc1Cl    1.37

Provide the documented TGI with U-251 as the system for COc1cc(-c2nn(-c3cccc(NC(=O)Nc4ccc(Cl)c(Cl)c4)c3)cc2-c2ccncc2)ccc1Cl
2.47

----------
Assay: Growth inhibition of human Hs 578T cells assessed as cell growth at 5X10'-5 M after 48 hrs by sulforhodamine B assay
Format: functional
Details: read-out: Activity
Property: growth at 50 µM; scope: individual compounds
Write it as a number; the unit % goes unstated.

Give the measured growth at 50 µM of O=C(Nc1cccc(-n2cc(-c3ccncc3)c(-c3ccc(Cl)c(O)c3)n2)c1)Nc1cc(C(F)(F)F)cc(C(F)(F)F)c1 .
-40

# lookup: growth at 50 µM of O=C(Nc1cccc(-n2cc(-c3ccncc3)c(-c3ccc(Cl)c(O)c3)n2)c1)c1ccc(N2CCOCC2)c(C(F)(F)F)c1
8

Param item = COc1cc(-c2nn(-c3cccc(NC(=O)Nc4cccc(C(F)(F)F)c4)c3)cc2-c2ccncc2)ccc1Cl ; retrieve measured growth at 50 µM.
-6

Which growth at 50 µM value is on record for COc1cc(-c2nn(-c3cccc(NC(=O)Nc4ccc(Cl)c(Cl)c4)c3)cc2-c2ccncc2)ccc1Cl ?
4

----------
System: OVCAR-4
Test: Growth inhibition of human OVCAR4 cells after 48 hrs by sulforhodamine B assay
Format: functional
Details: OVCAR-4, 48 h
The threshold is 8 µM. Values of GI50 beneath it are tagged Met; values meeting or exceeding it are tagged Not met.

COc1cc(-c2nn(-c3cccc(NC(=O)c4cccc(C(F)(F)F)c4)c3)cc2-c2ccncc2)ccc1Cl    Met

Say whether its GI50 is strictly beneath 8 µM. Entry: O=C(Nc1cccc(-n2cc(-c3ccncc3)c(-c3ccc(Cl)c(O)c3)n2)c1)c1ccc(N2CCOCC2)c(C(F)(F)F)c1
Not met

Identify whether the compound O=C(Nc1cccc(-n2cc(-c3ccncc3)c(-c3ccc(Cl)c(O)c3)n2)c1)Nc1cccc(C(F)(F)F)c1 records GI50 below 8 µM.
Met

A record lists COc1cc(-c2nn(-c3cccc(NC(=O)c4ccc(N5CCOCC5)c(C(F)(F)F)c4)c3)cc2-c2ccncc2)ccc1Cl . Is its GI50 below 8 µM?
Met

----------
# CC50 listing for each entry below
System: KM12
Test: Growth inhibition of human KM12 cells after 48 hrs by sulforhodamine B assay
Assay type: functional, cell-based
Conditions: KM12, 48 h, read-out: LC50 (the source's name)
I only need the number, in µM, no unit after it.

Worked set:
O=C(Nc1cccc(-n2cc(-c3ccncc3)c(-c3ccc(Cl)c(O)c3)n2)c1)Nc1ccc(Cl)c(C(F)(F)F)c1    17.4
COc1cc(-c2nn(-c3cccc(NC(=O)Nc4ccc(Cl)c(C(F)(F)F)c4)c3)cc2-c2ccncc2)ccc1Cl    14.9
O=C(Nc1cccc(-n2cc(-c3ccncc3)c(-c3ccc(Cl)c(O)c3)n2)c1)Nc1ccc(Cl)c(Cl)c1    26.3

Recorded CC50 of COc1cc(-c2nn(-c3cccc(NC(=O)Nc4ccc(Cl)c(Cl)c4)c3)cc2-c2ccncc2)ccc1Cl , please.
49.5

Value source: ChEMBL document CHEMBL2440076
